Source: PubChem BioAssay (NCATS)

experiment: qHTS assay to identify small molecule inhibitors of chordoma cells - UCH-2 (AID 1259356); conditions: UCH-2 chordoma viability, CellTiter-Glo ATP luminescence, 48 h; series mostly up to 46.1 µM
Results filed as inconclusive are left out. Active and inactive are the calls of the source. Calls follow the shape of the dose curve; as a rule, active = well fitted cell-killing curve with a large enough effect; inconclusive = small, poorly fitted or top-dose-only effect; inactive = flat fitted curve, though single readings scatter.
readout label: outcome

Past entries and their recorded results:
CCCCCCCCCCCC[N+](C)(C)CCOc1ccccc1 ... inactive
O=C(NC(=O)c1c(F)cccc1F)Nc1cc(Cl)c(OC(F)(F)C(F)C(F)(F)F)cc1Cl (stereo unspecified) ... inactive
Clc1ccc(C(OCCN2CCCCC2)c2ccccc2)cc1 (stereo unspecified) ... inactive
C[N+]1(CCC(C(N)=O)(c2ccccc2)c2ccccc2)CCCCC1 ... inactive
CC1=C2[C@H]3OC(=O)[C@@H](C)[C@@H]3CC[C@@]2(C)C=CC1=O ... inactive

Can you give me outcome for all of these, one by one?
1. C[N+]1(C)[C@@H]2CC[C@H]1CC(OC(=O)C(CO)c1ccccc1)C2 (stereo partly specified)
2. NCc1cccnc1
3. Cc1ccc(N=CN(C)C=Nc2ccc(C)cc2C)c(C)c1
4. COP(=O)(OC)C(O)C(Cl)(Cl)Cl (stereo unspecified)
5. O=C(O)c1nn(Cc2ccc(Cl)cc2Cl)c2ccccc12
6. CCN(CC)CCOC(=O)C(C)(c1ccccc1)c1ccccc1
7. C=CCN1CC[C@]23CCCC[C@H]2[C@H]1Cc1ccc(O)cc13
8. CCS(=O)(=O)C(C)(C)S(=O)(=O)CC

Resp:
inactive
inactive
inactive
inactive
inactive
inactive
inactive
inactive
